Quantity Kind: IC50 (µM)
The figure you give is taken to be in µM; do not add the unit.

(Q) Recall the recorded IC50 for CCC(CC(=O)O)C(=O)c1ccc(C#Cc2ccccc2)cc1 (stereo unspecified) with Matrix metalloproteinase-15 (Homo sapiens, UniProt P51511) and state it.
Sequence (P51511 whole entry): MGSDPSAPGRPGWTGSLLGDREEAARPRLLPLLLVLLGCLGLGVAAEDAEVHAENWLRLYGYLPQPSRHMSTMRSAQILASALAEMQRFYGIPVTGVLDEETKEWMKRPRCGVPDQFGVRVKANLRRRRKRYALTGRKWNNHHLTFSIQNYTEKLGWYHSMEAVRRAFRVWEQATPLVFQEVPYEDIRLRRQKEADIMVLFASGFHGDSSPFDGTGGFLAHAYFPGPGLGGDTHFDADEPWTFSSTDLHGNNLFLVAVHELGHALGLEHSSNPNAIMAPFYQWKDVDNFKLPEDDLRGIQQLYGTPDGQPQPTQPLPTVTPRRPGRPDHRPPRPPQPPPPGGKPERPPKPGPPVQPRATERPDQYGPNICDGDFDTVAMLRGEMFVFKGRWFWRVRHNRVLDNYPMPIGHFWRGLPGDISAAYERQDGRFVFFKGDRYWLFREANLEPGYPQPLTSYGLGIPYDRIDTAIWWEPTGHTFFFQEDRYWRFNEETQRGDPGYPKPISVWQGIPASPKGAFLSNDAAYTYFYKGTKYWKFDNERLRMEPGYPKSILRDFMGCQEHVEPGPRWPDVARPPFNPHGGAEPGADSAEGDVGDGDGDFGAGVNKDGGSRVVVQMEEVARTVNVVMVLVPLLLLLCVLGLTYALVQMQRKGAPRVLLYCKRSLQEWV
(A) 13.9

###

# Tgt: Matrilysin (Homo sapiens) (UniProt P09237)
# Sequence (whole entry): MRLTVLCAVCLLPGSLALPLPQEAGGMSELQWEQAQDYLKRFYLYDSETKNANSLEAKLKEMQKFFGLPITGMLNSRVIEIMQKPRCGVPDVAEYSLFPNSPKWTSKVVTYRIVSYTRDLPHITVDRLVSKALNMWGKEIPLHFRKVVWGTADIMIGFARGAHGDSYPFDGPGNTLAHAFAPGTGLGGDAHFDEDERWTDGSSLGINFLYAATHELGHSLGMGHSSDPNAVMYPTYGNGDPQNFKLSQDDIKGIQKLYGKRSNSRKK
# Experiment Notes: Inhibitory activity against MMP7 upto 50 uM
Activity calls are given as the source filed them. The rule behind the calls is not given here.
Quantity Kind: Activity

>>> df
                                   molecule  quantity_kind  value_observed
0  CCC(CC(=O)O)C(=O)c1ccc(C#Cc2ccccc2)cc1 (stereo unspecified)       Activity        inactive
1     O=C(O)CCC(=O)c1ccc(C#CCOCc2ccccc2)cc1       Activity        inactive
2  CCCCCCC(CC(=O)O)C(=O)c1ccc(C#Cc2ccc(Cl)cc2)cc1 (stereo unspecified)       Activity        inactive
3              O=C(O)CCC(=O)c1ccc(C#CCO)cc1       Activity        inactive
4  CCC(CC(=O)O)C(=O)c1ccc(C#CCOCc2ccccc2)cc1 (stereo unspecified)       Activity        inactive

Now let's try a different one.
(Q) Suppose we examine the molecule CCCCCCCCC#Cc1ccc(C(=O)CCC(=O)O)cc1 ; what Activity value has been reported?
(A) inactive

Each recorded value in this set is attributed to ChEMBL document CHEMBL1148611.
